Can you tell me logP for the items I'm about to list?
# ASSAY_NAME: Measurement of logP values by HPLC on reversed phase columns (EEC directive 79/831 Annex V.A8)
# Assay type: physicochemical
# CONDITION_CONTEXT: pH 2.7
Reply briefly: the number, and no unit.

Which logP is reported for this compound? CCCN(C)C(=S)c1cc(-c2ncnc(Nc3cccc(F)c3)n2)ccn1
3.32

Consider the compound shown here: CC(C)CN(C)C(=O)c1cc(-c2ncnc(Nc3cc(F)ccc3F)n2)ccn1 What is its recorded logP?
2.9

Looking for the measured logP of COCCN(C)C(=O)c1cc(-c2ncnc(Nc3ccc(F)cc3)n2)ccn1 , can you help?
3.92

# input compound: CC(=NOCc1c(Cl)cccc1Cl)c1cc(-c2ncnc(Nc3cccc(Cl)c3)n2)ccn1 (mixture of isomers) ; wanted: its logP
6.02
